Kindly supply the reported protein stability index values for the records listed here.
B1: SEC22B (parent)
chain: FPKKLAFAYLEDLHSEFDEQHGKK

# Variants of: B1
# Assay summary: protein stability index of a GFP-peptide fusion (GPS, HEK-293T) (PSI 1-6); higher = more stable;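 also: lentivirally expressed fusions sorted by FACS into six bins by GFP to DsRed ratio, PSI derived from sequencing read proportions per bin multiplied by bin number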
# Cond: c terminus: a fixed tail appended

Which protein stability index is reported for this variant? "A8T"
2.64

// query: "E16S"
2.8

Do the same for "L13E" please
3.23

Likewise for "Y9M" ?
2.48

Follow-up entry: "F1A"
4.36

Item: "K23C"
2.3

# iterate: "K24V"
2.49

Another: "E11K"
2.63

And for "D18A" ?
2.38

// query: "L13P"
2.61

What would you report for "Q20F" ?
2.49

What do you have for "A8V" ?
2.31

What do you have for "L5P" ?
1.77

Now the same for "K3Q"
2.4

Also "G22Q" , if possible.
2.36

What do you get for "S15W" ?
2.27

Follow-up entry: "L13H"
2.93

Now the same for "L13V"
2.55

Now the variant "P2L"
1.68

Input "D18C"
1.9

Let us now turn to "E19Y"
2.39

What do you get for "K23I" ?
2.66

What do you have for "H21Q" ?
2.66

Proceed to "A8H"
2.72

Note, next up: "L13W"
2.99

What about this variant? "D12I"
1.72

What about "K23R" ?
2.34

// query: "S15H"
2.22

Another variant: "L5I"
2.98

Same thing, different variant: "F1G"
4.02

Next: "F1R"
3.98

Here is the next variant: "D18R"
2.03

Input "H14P"
2.2

What do we get for "K4D" ?
3.31

// next record "F1S"
4.52

Another variant to check: "S15N"
2.67

Moving on to the next variant: "Q20K"
2.64

And the next one, "F17L" ?
2.54

How about "E11H" ?
1.86

Quick one: "Y9L"
2.63

// query: "F7G"
3.8

Lookup "P2S"
3.06

What about this variant? "L13F"
2.5

Please give the result for "L10S" too.
3.15

Try this variant too: "E16M"
1.93

Moving on to "F7H"
3.42

Try "L13Y" next.
2.47

Same for "F17V"
2.67

Moving on to the next variant: "S15E"
2.9

Now the variant "H14A"
2.47

Next entry: "A6E"
3.96

Please answer likewise for "F1H"
3.84

Next up: "Q20N"
2.55

Now this one: "D18K"
1.76

What about this variant? "P2V"
2.29

Request: "K3V"
2.53

Another variant to check: "L5K"
2.85

Also check "Y9Q"
2.91

Follow-up entry: "H21E"
2.85

Next record, please: "F17R"
2.85

Same again, this time with "A8K"
2.91

Proceed to "F17E"
3.04

Continue with "K3D"
2.25

Can you check "F1C" next?
4.01

Similarly, "H14F" ?
1.91

Likewise for "S15M" ?
2.5

Do the same for "E19H" please
2.05

Record: "E19R"
1.63

Here is the next variant: "K23S"
2.7

// same read-out, input: "L10R"
2.75

Can you handle "D12A" next?
2.1

What about this variant? "H14L"
2.31

Also, "P2C" please.
1.87

How about this variant: "Q20A"
2.23

Also, "E16L" please.
2.29

And the next one, "S15C" ?
2.25

"F7M" ?
2.53

Next up: "F17Y"
2.91

Okay, and "H14R" ?
2.55

// next record "E16G"
2.5

Next: "K24T"
2.5

// repeat for "H21G" and report
2.5

And the next one, "H21W" ?
2.34
